# test-system: UniProt:P06276
# Sequence (P06276 whole entry): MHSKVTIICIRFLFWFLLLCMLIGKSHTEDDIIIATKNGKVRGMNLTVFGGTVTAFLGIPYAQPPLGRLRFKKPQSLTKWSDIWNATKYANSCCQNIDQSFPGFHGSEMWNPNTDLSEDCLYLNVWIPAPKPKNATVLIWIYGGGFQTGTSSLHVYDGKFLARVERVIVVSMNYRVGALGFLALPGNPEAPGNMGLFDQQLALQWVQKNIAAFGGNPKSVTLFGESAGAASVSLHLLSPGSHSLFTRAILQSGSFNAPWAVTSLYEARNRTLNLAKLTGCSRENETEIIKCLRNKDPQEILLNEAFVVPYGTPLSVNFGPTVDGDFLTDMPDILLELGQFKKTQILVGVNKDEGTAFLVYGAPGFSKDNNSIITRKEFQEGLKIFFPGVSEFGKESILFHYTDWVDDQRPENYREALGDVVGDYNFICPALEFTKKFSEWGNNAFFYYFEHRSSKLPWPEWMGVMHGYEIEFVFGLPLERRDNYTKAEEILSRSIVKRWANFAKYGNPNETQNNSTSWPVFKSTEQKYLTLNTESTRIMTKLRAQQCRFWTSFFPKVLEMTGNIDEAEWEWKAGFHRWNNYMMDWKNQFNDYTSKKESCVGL
# experiment: Binding affinity to human BuChE (unknown origin) assessed as overall carbamolyation rate at 100 to 1000 nM incubated for 60 mins
measurement-name: Ki (nM)
Numbers only, in nM.

### Prompt Please give the documented Ki of COc1ccc(C(C)=O)c(OC(=O)N(C)Cc2ccc(F)cc2)c1
### Response 2.8
